- assaySystem: human M2 receptor (Homo sapiens)
- Construct: expressed in transfected cells; host or cells: CHO-DUKX (CHO-DUKX-M2-GIRK)
- assayComment: Functional M2-GIRK1/4 activation test: allosteric potency (EC50) and efficiency at EC20 acetylcholine
- Assay type: cell-based
- conditionNotes: CHO-DUKX-M2-GIRK cells; voltage-sensitive dye; acetylcholine at EC20; in some cases mean of two or more determinations
compounds and their reported pEC50
Give only the number. pEC50 is defined as minus log10 of concentration in molar units.

CCN(CC(C)O)c1nc2c(cc1F)c(=O)c(C(=O)N[C@@H](C1CC1)C(F)(F)F)cn2-c1c(F)cc(F)cc1F (mixture of isomers) [Example 65] = 7.52
O=C(N[C@@H](C1CC1)C(F)(F)F)c1cn(-c2c(F)cc(F)cc2Cl)c2nc(N3C[C@@H](O)[C@H](O)C3)c(F)cc2c1=O [Example 42] = 8.40
CC(C)C(NC(=O)c1cn(-c2c(F)cc(F)cc2F)c2nc(N3C[C@@H](O)[C@@H](O)C3)c(F)cc2c1=O)C(F)(F)F (single isomer, unassigned) [Example 137] = 8.48
C[C@H](O)CN(C)c1nc2c(cc1F)c(=O)c(C(=O)N[C@@H](C1CC1)C(F)(F)F)cn2-c1c(F)cc(F)cc1Cl [Example 72] = 7.96
CC(C)C(NC(=O)c1cn(-c2c(F)cc(F)cc2F)c2nc(N3CC[C@H](O)C3)c(F)cc2c1=O)C(F)(F)F (mixture of isomers) [Example 126] = 8.41

Report pEC50 for CC(C)(NC(=O)c1cn(-c2c(F)cc(F)cc2F)c2nc(N3CC(CO)(CO)C3)c(F)cc2c1=O)C(F)(F)C(F)(F)F [Example 166] please.
8.36

What pEC50 value was documented for this compound, CC[C@H](NC(=O)c1cn(-c2c(F)cc(F)cc2F)c2nc(N3C[C@@H](O)[C@@H](O)C3)c(F)cc2c1=O)C(F)(F)F [Example 98] ?
7.84

###

- assaySystem: human M2 receptor (Homo sapiens)
- Construct: expressed in transfected cells; host or cells: CHO-DUKX (CHO-DUKX-M2-GIRK)
- Sequence (P08172 1-466): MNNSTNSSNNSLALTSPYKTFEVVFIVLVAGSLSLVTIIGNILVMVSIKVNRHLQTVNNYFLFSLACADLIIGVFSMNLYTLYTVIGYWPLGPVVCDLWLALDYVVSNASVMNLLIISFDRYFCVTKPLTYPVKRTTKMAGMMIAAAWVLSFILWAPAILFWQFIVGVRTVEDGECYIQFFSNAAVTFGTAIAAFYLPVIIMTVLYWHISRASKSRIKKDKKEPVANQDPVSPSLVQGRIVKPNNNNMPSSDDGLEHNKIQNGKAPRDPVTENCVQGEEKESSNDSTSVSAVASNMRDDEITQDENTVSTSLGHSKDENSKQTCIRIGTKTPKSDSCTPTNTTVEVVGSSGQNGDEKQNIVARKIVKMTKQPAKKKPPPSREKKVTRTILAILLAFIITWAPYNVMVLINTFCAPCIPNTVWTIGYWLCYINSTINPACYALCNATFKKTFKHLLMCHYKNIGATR
- assayComment: Functional M2-GIRK1/4 activation test: allosteric potency (EC50) and efficiency at EC20 acetylcholine
- Assay type: cell-based
- conditionNotes: boosting of the acetylcholine effect at EC20 acetylcholine concentration; CHO-DUKX-M2-GIRK cells
Measured Emax of individual entries
Numbers only here, please. The scale is %.

# count of solved cases: 5
CCC(COC(F)(F)F)NC(=O)c1cn(-c2c(F)cc(F)cc2F)c2nc(N3CC[C@H](O)C3)c(F)cc2c1=O (mixture of isomers) [Example 109] = 100
C[C@H](NC(=O)c1cn(-c2c(F)cc(F)cc2Cl)c2nc(N3C[C@@H](O)[C@H](O)C3)c(F)cc2c1=O)C(F)(F)F [Example 224] = 96
C[C@H]1CN(c2nc3c(cc2F)c(=O)c(C(=O)N[C@@H](C2CC2)C(F)(F)F)cn3-c2c(F)cc(F)cc2F)CCN1 = 65
CN1CCN(c2nc3c(cc2F)c(=O)c(C(=O)N[C@@H](C2CC2)C(F)(F)F)cn3-c2c(F)cc(F)cc2F)CC1CO (stereo partly drawn) = 100
O=C(N[C@@H](C1CC1)C(F)(F)F)c1cn(-c2c(F)cc(F)cc2F)c2nc(N3C[C@@H](O)CC3=O)c(F)cc2c1=O = 97

Proceeding to the next compound to report its Emax.
Could you tell me which Emax is on file for CC(NC(=O)c1cn(-c2c(F)cc(F)cc2F)c2nc(N3C[C@@H](O)[C@H](O)C3)c(F)cc2c1=O)C(F)(F)C(F)(F)F (single isomer, unassigned) [Example 9] ?
91

Source listed as patent US11472803B2.
